testedTarget: human Fibroblast Growth Factor Receptor 3 (FGFR3), FGFR3 (gene 2261) (UniProt P22607)
Sequence (P22607 whole entry, looked up): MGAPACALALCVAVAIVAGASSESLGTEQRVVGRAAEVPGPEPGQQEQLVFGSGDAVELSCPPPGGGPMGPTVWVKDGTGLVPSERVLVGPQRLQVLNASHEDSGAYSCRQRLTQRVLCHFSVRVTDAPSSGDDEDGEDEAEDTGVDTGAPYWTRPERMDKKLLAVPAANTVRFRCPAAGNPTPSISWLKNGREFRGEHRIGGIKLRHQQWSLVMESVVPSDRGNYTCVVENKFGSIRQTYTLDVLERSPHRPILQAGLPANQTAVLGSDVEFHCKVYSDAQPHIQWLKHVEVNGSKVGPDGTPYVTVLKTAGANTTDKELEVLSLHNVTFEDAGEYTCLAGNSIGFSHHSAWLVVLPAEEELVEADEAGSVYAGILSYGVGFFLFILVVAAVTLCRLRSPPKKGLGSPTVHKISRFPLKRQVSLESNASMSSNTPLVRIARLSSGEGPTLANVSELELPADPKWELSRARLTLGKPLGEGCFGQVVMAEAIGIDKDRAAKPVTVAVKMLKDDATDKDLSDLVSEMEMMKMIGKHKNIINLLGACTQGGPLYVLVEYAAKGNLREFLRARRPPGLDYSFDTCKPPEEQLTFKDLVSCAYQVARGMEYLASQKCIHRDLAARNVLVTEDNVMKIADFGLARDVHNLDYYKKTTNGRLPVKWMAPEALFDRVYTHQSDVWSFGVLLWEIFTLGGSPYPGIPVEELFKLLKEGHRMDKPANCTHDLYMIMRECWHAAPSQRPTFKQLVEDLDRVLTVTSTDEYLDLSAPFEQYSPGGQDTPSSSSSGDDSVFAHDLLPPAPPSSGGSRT
assayText: NVS_ENZ_hFGFR3: NovaScreen (NVS) Enzymatic Assay for human Fibroblast Growth Factor Receptor 3 (FGFR3)
Records with an inconclusive call do not appear. Activity calls are given as the source filed them. The calls were made as follows: active = hit-call score of the fitted dose curve at least 0.9, where 1 is the maximum; inconclusive = response in the unintended direction; inactive = score below 0.9.
reportedEndpoint: AC50

Problem: Provide value of AC50 for this record tested with human Fibroblast Growth Factor Receptor 3 (FGFR3), FGFR3 (gene 2261) (UniProt P22607): CSc1nnc(C(C)(C)C)c(=O)n1N
Solution: inactive

Problem: Provide value of AC50 for this record tested with human Fibroblast Growth Factor Receptor 3 (FGFR3), FGFR3 (gene 2261) (UniProt P22607): CCCC1COC(Cn2cncn2)(c2ccc(Cl)cc2Cl)O1 (stereo not given)
Solution: inactive

Problem: Provide value of AC50 for this record tested with human Fibroblast Growth Factor Receptor 3 (FGFR3), FGFR3 (gene 2261) (UniProt P22607): COCC(C)N(C(=O)CCl)c1c(C)csc1C (stereo not given)
Solution: inactive

Problem: Provide value of AC50 for this record tested with human Fibroblast Growth Factor Receptor 3 (FGFR3), FGFR3 (gene 2261) (UniProt P22607): CN(C)[C@@H]1C(=O)C(C(N)=O)=C(O)[C@@]2(O)C(=O)C3=C(O)c4c(O)cccc4[C@@](C)(O)[C@H]3[C@H](O)[C@@H]12
Solution: 14.5 µM (active)

Others:
Problem: Provide value of AC50 for this record tested with human Fibroblast Growth Factor Receptor 3 (FGFR3), FGFR3 (gene 2261) (UniProt P22607): CCCOc1nn(C(=O)NS(=O)(=O)c2ccccc2C(=O)OC)c(=O)n1C
Solution: inactive

----------
testedTarget: human Fibroblast Growth Factor Receptor 3 (FGFR3), FGFR3 (gene 2261) (UniProt P22607)
assayText: NVS_ENZ_hFGFR3: NovaScreen (NVS) Enzymatic Assay for human Fibroblast Growth Factor Receptor 3 (FGFR3)
Results filed as inconclusive are left out. The source made the active and inactive calls. How the source made its calls: active means hit-call score of the fitted dose curve at least 0.9, where 1 is the maximum; inconclusive means response in the unintended direction; inactive means score below 0.9.
Please reply with one of these outcomes: 1 = active, -1 = inactive

Problem: How did this test come out for S=C([S-])NCCNC(=S)[S-].[Mn+2] ?
Solution: 1

Problem: How did this test come out for COP(=O)(OC)OC=C(Cl)Cl ?
Solution: -1

Problem: How did this test come out for CC(Oc1cccc(Cl)c1)C(=O)O (stereo unspecified) ?
Solution: -1

Problem: How did this test come out for CCCCN(CC)c1c([N+](=O)[O-])cc(C(F)(F)F)cc1[N+](=O)[O-] ?
Solution: -1

Problem: How did this test come out for CNC(=O)Oc1ccccc1OC(C)C ?
Solution: -1

Problem: How did this test come out for CN(C)C(=S)SSC(=S)N(C)C ?
Solution: -1
